system: Caenorhabditis elegans N2; assay: mean nematode size ln(EXT) after 48 h, plate-adjusted (DMSO control set to 6) (ln(EXT), control-adjusted); higher = larger nematodes / less growth inhibition; conditions: 10 µM; exposure time 48 h
Is mean nematode size ln(EXT) (ln) at least 6? Then condition met. If not, condition not met.

Query: Is the recorded value of mean nematode size ln(EXT) (ln) equal to or greater than 6 for this compound? `CCCCc1ccc2c(n1)[C@@H](c1ccc(OC)cc1C[C@H](C)C(=O)O)[C@H](C(=O)O)[C@H]2c1ccc2c(c1)OCO2`
Reply: condition met

Query: Try the compound `Nc1ccc([N+](=O)[O-])cc1`
Reply: condition not met

Query: Try the compound CCOP(=S)(OCC)OC(Cl)C(Cl)(Cl)Cl (stereo not given)
Reply: condition not met

Query: Try the compound `NCc1cccc(C2CCN(C(=O)c3ccc(C#Cc4ccccc4F)o3)CC2)c1`
Reply: condition not met

Query: Try the compound `Cc1cc(SC2=C(O)C[C@@](CCc3ccc(N)cc3)(C(C)C)OC2=O)c(C(C)(C)C)cc1CO`
Reply: condition met
